Target: SauLRS (leucyl-tRNA synthetase from Staphylococcus aureus) (Staphylococcus aureus, UniProt Q2FXH2)
Construct: made in house; host or cells: Escherichia coli M15
Sequence (Q2FXH2 1-805): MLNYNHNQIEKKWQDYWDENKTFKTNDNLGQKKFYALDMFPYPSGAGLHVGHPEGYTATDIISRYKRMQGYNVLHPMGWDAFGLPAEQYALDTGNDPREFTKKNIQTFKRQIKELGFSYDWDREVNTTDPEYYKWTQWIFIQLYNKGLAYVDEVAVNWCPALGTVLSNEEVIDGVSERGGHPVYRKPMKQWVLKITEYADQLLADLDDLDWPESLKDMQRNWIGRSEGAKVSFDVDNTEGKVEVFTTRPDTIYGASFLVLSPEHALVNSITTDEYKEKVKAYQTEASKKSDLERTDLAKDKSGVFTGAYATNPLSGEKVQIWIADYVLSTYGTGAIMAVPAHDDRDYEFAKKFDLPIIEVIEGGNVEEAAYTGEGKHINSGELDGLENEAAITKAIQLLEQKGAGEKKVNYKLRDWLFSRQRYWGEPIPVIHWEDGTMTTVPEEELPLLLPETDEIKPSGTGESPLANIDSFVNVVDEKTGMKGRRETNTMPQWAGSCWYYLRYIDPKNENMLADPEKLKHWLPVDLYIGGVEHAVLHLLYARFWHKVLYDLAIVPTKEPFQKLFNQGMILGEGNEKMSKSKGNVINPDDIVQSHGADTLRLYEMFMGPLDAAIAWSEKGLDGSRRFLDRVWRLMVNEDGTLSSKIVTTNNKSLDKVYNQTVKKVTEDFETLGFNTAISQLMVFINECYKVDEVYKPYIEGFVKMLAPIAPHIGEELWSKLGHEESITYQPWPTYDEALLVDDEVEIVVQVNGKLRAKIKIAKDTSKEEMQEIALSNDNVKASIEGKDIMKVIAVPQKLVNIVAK
Test: aaRS aminoacylation assay (ATP consumption), SauLRS
Format: biochemical
Conditions: i.a. = inactive at a concentration below 50 uM
experimentalEndpoint: IC50 SauLRS

Cc1cc(-c2cccc(S(=O)(=O)NC(=O)[C@@H](N)CC3CCCCC3)c2)nc(N)n1 : i.a
CC[C@H](C)[C@H](N)C(=O)NS(=O)(=O)c1cccc(-c2cc(C)nc(N)n2)c1 : i.a.
Cc1cc(-c2cccc(S(=O)(=O)NC(=O)[C@@H](N)CC3CC3)c2)nc(N)n1 : i.a
N[C@@H](CC1CC1)C(=O)NS(=O)(=O)c1cccc(-c2ccccc2)c1 (racemic) : i.a
